Tested on: W2
Experiment: qHTS profiling for inhibitors of Plasmodium falciparum proliferation (AID 504749); note: nearly all actives have a fitted effect of over 60% in size
Conditions: P. falciparum in erythrocytes, SYBR Green DNA, 72 h; series mostly up to 12.8 µM
Records with an inconclusive call do not appear. Active and inactive are the calls of the source. Calls come from the whole dose curve; as a rule, active = well fitted inhibition curve with a large enough effect; inconclusive = small, poorly fitted or top-dose-only effect; inactive = flat fitted curve, though single readings scatter.
Return exactly one item of active, inactive

What outcome does the record of this test show for CC1(C)S[C@H]2C(NC(=O)[C@@H](N)c3ccc(O)cc3)C(=O)N2[C@@H]1C(=O)O (some centres undefined) ?
inactive

Which outcome was assigned to `Nc1nc(NC2CC2)c2ncn([C@H]3C=C[C@@H](CO)C3)c2n1` in this test?
inactive

// outcome(item) with item = `CC(=O)OCC(=O)[C@@]1(O)[C@H](C)C[C@@H]2[C@H]3CCC4=CC(=O)C=C[C@]4(C)[C@]3(F)[C@@H](O)C[C@@]21C`
inactive

Field: outcome | Entry: `Clc1ccc([C@H](Cn2ccnc2)OCc2csc3c(Cl)cccc23)c(Cl)c1`
active

Called result for CN(C)CCc1c[nH]c2ccc(CC3COC(=O)N3)cc12 (centres undefined)
inactive

Check the results log: what was the call for `CC(C)(C)NC[C@H](O)COc1cccc2c1CCC(=O)N2` ?
inactive

GET /call?item= `CC[C@H]1NC(=O)c2cc(S(N)(=O)=O)c(Cl)cc2N1` returns the recorded outcome of this test.
inactive

Hey, what did the test say about CCCCC[C@H](O)/C=C\[C@H]1[C@H](C/C=C\CCCC(=O)O)[C@@H](O)C[C@H]1O (tested in a mixture with another compound) ?
inactive

Dear all, I need the recorded test outcome for COc1cc(C2c3cc4c(cc3C(O[C@@H]3OC5COC(c6cccs6)OC5C(O)C3O)C3COC(=O)C23)OCO4)cc(OC)c1O (some centres undefined) , thank you.
active

====

Test system: ECU
Test: qHTS profiling for inhibitors of Plasmodium falciparum proliferation (AID 504749); note: nearly all actives have a fitted effect of over 60% in size
Settings: P. falciparum in erythrocytes, SYBR Green DNA, 72 h; series mostly up to 12.8 µM
Inconclusive results are not listed. The source made the active and inactive calls. Calls come from the whole dose curve; as a rule, active = well fitted inhibition curve with a large enough effect; inconclusive = small, poorly fitted or top-dose-only effect; inactive = flat fitted curve, though single readings scatter.
Output constraint: value belongs to true (active), false (inactive)

For this compound, state the assay outcome: `C[C@H](N[C@@H](C)COc1ccccc1)[C@H](O)c1ccc(O)cc1`
false

Test call, this compound: `CCC(=O)O[C@@H]1[C@H](C)O[C@H](O[C@H]2[C@@H](N(C)C)[C@H](O)[C@@H](O[C@@H]3[C@@H](CC=O)C[C@@H](C)[C@@H](O)/C=C\C=C/C[C@@H](C)OC(=O)C[C@@H](OC(=O)CC)[C@H]3OC)O[C@H]2C)C[C@]1(C)O`
false

I would be grateful if you could indicate the recorded call for `NS(=O)(=O)c1cc2c(cc1C(F)(F)F)N[C@H](Cc1ccccc1)NS2(=O)=O` .
false

Which outcome did this test record for the compound `C[C@@H]1C[C@H]2[C@@H]3C[C@H](F)C4=CC(=O)C=C[C@@]4(C)[C@]3(F)[C@H](O)C[C@]2(C)[C@@]1(O)C(=O)CO` ?
false

Recorded test call requested for COc1cc(C2c3cc4c(cc3C(O[C@@H]3OC5COC(c6cccs6)OC5C(O)C3O)C3COC(=O)C23)OCO4)cc(OC)c1O (stereo partly specified)
true

# outcome recorded in this test, key = CCC1OC(=O)C(C)[C@@H](O[C@H]2C[C@@](C)(OC)C(O)C(C)O2)C(C)[C@@H](O[C@@H]2OC(C)CC(N(C)C)C2O)[C@@](C)(O)CC(C)C(=O)[C@@H](C)C(O)[C@]1(C)O (stereo partly specified)
false

====

Test: NFAT Signaling Pathway (AID 444);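 note: carbachol stimulus at about its EC50 of 1 µM final; % is set by controls: 0 for no effect and ±100 for the full control effect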
Details: Jurkat NFAT-bla M1, carbachol, beta-lactamase ratio, 5 h; at 17.2 µM (top of the series) unless noted
Inconclusive results are not listed.
What activity change, negative = inhibition was measured for each of the following?
Express your answer in %, writing the number without its unit.

Supply recorded activity change, negative = inhibition for `CC(=O)C[C@H](c1ccc([N+](=O)[O-])cc1)c1c(O)c2ccccc2oc1=O` here.
-1.36

Using the record for `CN[C@H]1[C@@H](O)[C@@H](NC)[C@@H]2O[C@@]3(O)C(=O)C[C@@H](C)O[C@H]3O[C@H]2[C@H]1O` , state its measured activity change, negative = inhibition.
-11.9

Supply reported activity change, negative = inhibition belonging to this molecule: `CN(C)/N=N\c1nc[nH]c1C(N)=O`
3.5

Indicate the recorded activity change, negative = inhibition value for this molecule: `O=C1O[C@H](CN2CCOCC2)CN1/N=C\c1ccc([N+](=O)[O-])o1`
-16.1

Give reported activity change, negative = inhibition value for `Cc1cn([C@@H]2C[C@H](N=[N+]=N)[C@H](CO)O2)c(=O)[nH]c1=O`
-2.1

Read off the recorded activity change, negative = inhibition for `CC(C)(C)NC(=O)[C@@H]1CC[C@@H]2[C@@H]3CC[C@@H]4NC(=O)C=C[C@@]4(C)[C@H]3CC[C@]21C`
3.14

Tell us which activity change, negative = inhibition value is on record for `CNc1ncnc2c1ncn2[C@@H]1O[C@H](CO)[C@@H](O)[C@@H]1O`
-5.4

Give the value of activity change, negative = inhibition reported for the following: `C[N+]12CCC(CC1)[C@@H](OC(=O)C(O)(c1ccccc1)c1ccccc1)C2`
-57.3

Identify measured activity change, negative = inhibition associated with `Cc1onc(-c2c(Cl)cccc2Cl)c1C(=O)N[C@H]1C(=O)N2[C@H]1SC(C)(C)[C@H]2C(=O)O`
-5.49

Given `CN(C)CCCO[C@H]1[C@@H]2OC(C)(C)O[C@@H]2O[C@@H]1[C@H](O)CO` , respond with its activity change, negative = inhibition.
-2.11

Please list activity change, negative = inhibition recorded for the molecule `O=C(O)CCCC[C@H]1SC[C@H]2NC(=O)N[C@@H]21`
2.95

Report measured activity change, negative = inhibition; entry is `O=C(/C=C\C=C/c1ccc2c(c1)OCO2)N1CCCCC1`
-3.46

Provide measured activity change, negative = inhibition value, entry: `CC(=O)S[C@H]1CC2=CC(=O)CC[C@@]2(C)[C@H]2CC[C@@]3(C)[C@H](CC[C@]34CCC(=O)O4)[C@@H]12`
-8.69

Return value of activity change, negative = inhibition for input `Cn1c(-c2ccc3c(c2)OCO3)cc(=O)c2ccccc21` , no commentary.
-10.6

Kindly indicate its recorded activity change, negative = inhibition. Item: `CC(C)(C)NC[C@H](O)COc1cccc2c1CCC(=O)N2`
-6.75

Please look at this molecule and report its activity change, negative = inhibition: `O=C1CN(/N=C\c2ccc([N+](=O)[O-])o2)C(=O)N1`
-2.23

Respond only with activity change, negative = inhibition recorded for `C[N+](C)(CCCOc1ccccc1)c1ccccc1`
-17.9

Hello, please tell me recorded activity change, negative = inhibition for this one: `C[C@H](O)Cn1cnc2c1c(=O)n(C)c(=O)n2C`
18.8

Tell me activity change, negative = inhibition reported for `CCN[C@@H]1CN(CCCOC)S(=O)(=O)c2sc(S(N)(=O)=O)cc21`
-3.14

Give the reported value of activity change, negative = inhibition for this record: `C[C@H]1CC[C@]2(OC1)O[C@@H]1C[C@@H]3[C@@H]4CC[C@H]5C[C@@H](O)CC[C@]5(C)[C@@H]4CC(=O)[C@@]3(C)[C@H]1[C@@H]2C`
0.559

====

Test system: 3D7
Assay: qHTS profiling for inhibitors of Plasmodium falciparum proliferation (AID 504749); note: nearly all actives have a fitted effect of over 60% in size
Conditions: P. falciparum in erythrocytes, SYBR Green DNA, 72 h; series mostly up to 12.8 µM
Records with an inconclusive call do not appear. Calls of active or inactive are those of the source. Calls follow the shape of the dose curve; as a rule, active = well fitted inhibition curve with a large enough effect; inconclusive = small, poorly fitted or top-dose-only effect; inactive = flat fitted curve, though single readings scatter.
Your answer must be one of the following: TRUE (active), FALSE (inactive)

Which result was noted for this compound in the test: CC1CCC(C(C)C)C(=O)C1 (stereo not given)
FALSE

Which outcome was assigned to CCOC(=O)C1=CC(OC(CC)CC)C(NC(C)=O)C(N)C1 (stereo not given) in this test?
FALSE

What did the test return for `CC(=O)OCC(=O)[C@@]1(O)[C@H](C)C[C@@H]2[C@H]3CCC4=CC(=O)C=C[C@]4(C)[C@]3(F)[C@@H](O)C[C@@]21C` ?
FALSE

Would you mind telling me which call this test gave `CC[C@H](CO)NCCN[C@@H](CC)CO` ?
FALSE

Can you look up the reported call for COc1ccc2cc1Oc1ccc(cc1)CC1c3c(cc4c(c3Oc3cc5c(cc3OC)CCN(C)C5C2)OCO4)CCN1C (stereo not given) for me?
TRUE

====

Molecular target: Rap guanine nucleotide exchange factor 4 (Homo sapiens)
Test: Confirmatory qHTS for antagonist of cAMP-regulated guanine nucleotide exchange factor 4 (EPAC2) (AID 1645885); note: nearly all actives have a fitted effect of over 25% in size
Settings: EPAC2 Rap1B-BODIPY-GDP exchange fluorescence, biochemical; series mostly up to 12.7 µM
Results filed as inconclusive are left out. Active and inactive are the calls of the source. The call rests on the fitted dose curve; in most records, active means well fitted inhibition curve with a large enough effect; inconclusive means small, poorly fitted or top-dose-only effect; inactive means no such curve, though single readings can be large or run the other way.
Outcomes you can answer with include only these: true (1) for active, false (0) for inactive

Fill in: this test's call for `O=C(CCSc1nc2ccccc2o1)N1CCOCC1` is ___
false (0)

Please let me know the test result on file for COc1cc(C2c3c(oc4ccccc4c3=O)C(=O)N2c2nc(C)c(C)s2)ccc1O (stereo not drawn) .
false (0)

Kindly provide the recorded test outcome for the following compound: CC(C)CC1C(=O)N(Cc2cn(CCC3OCCO3)nn2)CCS(=O)(=O)N1Cc1ccc(-c2ccc(F)cc2)cc1 (stereo not drawn)
true (1)

Recorded test outcome, item `CNC[C@H]1Oc2ccc(NC(=O)Nc3ccccc3)cc2CC(=O)N([C@H](C)CO)C[C@H]1C`
false (0)

# outcome recorded in this test, key = `Cc1ccccc1NC1=C/C(=N\S(=O)(=O)c2ccc(C(=O)O)cc2)c2ccccc2C1=O`
false (0)

Hey, what did the test say about `COc1ccc2oc(C(=O)N(C)CCOc3ccc(Cl)cc3)c(C)c2c1` ?
false (0)

Tell me the assay call for Cc1ccc(C(CCN(Cc2ccccc2)C(=O)c2ccco2)c2ccco2)cc1 (stereo not drawn) please.
true (1)

For this compound, state the assay outcome: CC(Sc1nncn1C)C(=O)Nc1nnc(C(C)C)s1 (stereo not drawn)
false (0)

Could you please tell me the result logged for `Cc1ccc(N(Cc2cccs2)C(=O)c2ccccc2Cl)cc1` in this assay?
false (0)

Look up the recorded call for `COc1ccc(/C=C2/SC(=S)N(NS(=O)(=O)c3ccccc3)C2=O)cc1` in this test.
false (0)

Status in this test for `N#CCC(=O)Nc1sc2c(c1C(N)=O)CCCC2` ?
false (0)

Assay outcome for CCC(C(=O)OCC(=O)Nc1cc(C)ccc1OC)c1ccccc1 (stereo not drawn) : what was it?
false (0)

Please indicate how the test categorized `Cc1noc(NS(=O)(=O)c2ccc(NC(=O)CSc3nnc4c(n3)[nH]c3ccccc34)cc2)c1C` .
false (0)

Any idea what this test logged for `Cc1ccc(CNC(=O)COc2ccccc2-c2ccccc2)cc1` ?
false (0)

Outcome? `O=C(c1ccco1)N(Cc1ccc([N+](=O)[O-])cc1)c1ccc(Br)cc1`
false (0)

What is the recorded call for this compound in the test? `COc1cc2cncc(Cc3ccc(Cl)cc3)c2cc1OC`
false (0)

Write down the call the test reported for this compound. Item: `O=C1C(c2ccccc2)=[N+]([O-])c2ccccc21`
false (0)

Please state the recorded outcome for this compound: `COC(=O)c1ccc2nc(-c3ccc(C)cc3)c(Cc3ccc(C)cc3)n2c1`
true (1)

Just curious, what result did `O=C(O)c1cccc(N/N=C/c2cc(Br)cc(Br)c2O)c1` get here?
true (1)

Could you please tell me the result logged for `COc1ccc(C=NNc2ccc(S(=O)(=O)Nc3ccccc3C(=O)O)cc2[N+](=O)[O-])c(OC)c1` in this assay?
false (0)

Hi, sorry to bother you, what did the test record for `c1ccc(-c2nc(C3CCCCC3)c3ccccc3n2)cc1` ?
false (0)

What classification did `COc1ccc(C(=O)Nc2ccc(-c3cc4ccccc4oc3=O)c(C)c2)cc1Br` end up with in this test?
false (0)

Name the outcome recorded for Cc1ccc2nc(N3C(=O)C(O)=C(C(=O)c4ccc(C)o4)C3c3cccc(O)c3)sc2c1 (stereo not drawn) in the assay.
false (0)

Short answer needed: outcome of this test for CC(C)Cn1c(N)c(C(=O)NCC2CCCO2)c2nc3ccccc3nc21 (stereo not drawn) ?
false (0)

GET /call?item= `CCN(CC(=O)Nc1c(F)cccc1F)C(=O)CCc1nc2sc3c(c2c(=O)[nH]1)CCCC3` returns the recorded outcome of this test.
false (0)

Hello, I am checking results. What call was entered for `COc1ccc(NC(=O)c2ccc3c(SCC(=O)O)c4c(nc3c2)CCCC4)c(OC)c1` ?
false (0)

Recorded call for `CN(c1ccccc1)S(=O)(=O)c1cccc(Cl)c1Cl` ?
false (0)

Could you kindly confirm the outcome this assay logged for `O=C(COc1ccc2ccccc2c1)Nc1cccc(C(=O)Nc2ccccc2C(=O)O)c1` ?
true (1)

Answer briefly: the call reported for CC1Sc2ccc(C(=O)OCc3ccccc3Cl)cc2NC1=O (stereo not drawn) in this assay.
false (0)

Could you kindly confirm the outcome this assay logged for `COc1ccc(C(C)=O)cc1COc1ccc(F)cc1` ?
false (0)

Test call for this compound, please: `CCOC(=O)COc1ccc(Br)cc1/C=C\c1[nH]c(=O)[nH]c(=O)c1[N+](=O)[O-]`
false (0)

Which outcome was entered for the compound `COc1ccc(-c2oc3cccnc3c2C#CCO)cc1` in this test?
false (0)

Identify the outcome logged in this assay for the compound shown: `COc1cc(/C=C2\SC(=O)NC2=O)ccc1Oc1ccc([N+](=O)[O-])cc1[N+](=O)[O-]`
false (0)

What outcome does the record of this test show for `Cc1nc2ccccc2c(=O)n1/N=C/c1ccccc1O` ?
false (0)

Which outcome was entered for the compound `CC(=O)Nc1nc(C)c(Oc2ccc(Cl)cc2Cl)c(=O)[nH]1` in this test?
false (0)

Tell me the recorded outcome of this test for `CCOC(=O)/C(=C\c1ccc(N2CCC(c3ccccc3)=N2)cc1)C(C)=O` .
false (0)

Dear all, I need the recorded test outcome for `Cc1ccc(S(=O)(=O)Nc2ccccc2C=Nc2cccc(C)c2C)cc1` , thank you.
false (0)

Test call, this compound: CC(NC(=O)c1sc2ncccc2c1-n1cccc1)c1ccccc1 (stereo not drawn)
false (0)

Dear colleague, could you share the recorded outcome for CCOc1ccc(C(C(=O)NC2CCCC2)N(C(=O)c2snc(C(N)=O)c2N)C2CCCC2)cc1 (stereo not drawn) when you have a moment?
false (0)

Kindly provide the recorded test outcome for the following compound: `NC(=O)c1sc(=S)n2c1[nH]c(=O)c1sccc12`
false (0)

Write down the call the test reported for this compound. Item: `COc1ccc(N2CCN(C(=O)COC(=O)c3ccc(C)o3)CC2)cc1`
false (0)

Entry COc1cccc(C2c3[nH]c4ccccc4c3CCN2Cc2ncc[nH]2)c1 (stereo not drawn) : call = ?
false (0)

What did this assay record as the result for `Cc1ccc2nc(-c3ccccc3)c(Cc3ccccn3)n2c1` ?
false (0)
